testSystem: UniProt:Q06187
Sequence (Q06187 whole entry): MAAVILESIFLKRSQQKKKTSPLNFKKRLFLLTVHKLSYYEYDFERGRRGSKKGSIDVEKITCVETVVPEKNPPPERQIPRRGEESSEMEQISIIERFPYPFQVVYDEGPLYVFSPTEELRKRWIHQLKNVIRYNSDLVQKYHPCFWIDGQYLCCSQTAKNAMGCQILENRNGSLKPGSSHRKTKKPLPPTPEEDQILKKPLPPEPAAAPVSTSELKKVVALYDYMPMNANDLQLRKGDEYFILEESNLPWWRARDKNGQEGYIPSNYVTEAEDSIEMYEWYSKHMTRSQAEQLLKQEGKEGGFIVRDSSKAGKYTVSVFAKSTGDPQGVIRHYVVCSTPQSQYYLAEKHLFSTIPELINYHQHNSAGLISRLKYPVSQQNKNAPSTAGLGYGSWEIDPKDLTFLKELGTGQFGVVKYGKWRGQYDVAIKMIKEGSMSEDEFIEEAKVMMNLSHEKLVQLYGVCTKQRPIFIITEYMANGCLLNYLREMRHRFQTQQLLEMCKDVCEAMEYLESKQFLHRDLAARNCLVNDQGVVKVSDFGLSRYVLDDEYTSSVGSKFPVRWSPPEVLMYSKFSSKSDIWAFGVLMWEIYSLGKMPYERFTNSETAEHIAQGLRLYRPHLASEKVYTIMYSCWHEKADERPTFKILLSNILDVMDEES
assayRemarks: Inhibition of human recombinant Btk

# compound, IC50
rows = [
    ("CN1CCN(c2nc(C3=C(c4c[nH]c5ccccc45)C(=O)NC3=O)c3ccccc3n2)CC1 [SOTRASTAURIN]", "> 10 µM"),
]

* * *

testSystem: Phosphatidylinositol 4,5-bisphosphate 3-kinase catalytic subunit gamma isoform (Homo sapiens)
Sequence (P48736 whole entry, canonical isoform): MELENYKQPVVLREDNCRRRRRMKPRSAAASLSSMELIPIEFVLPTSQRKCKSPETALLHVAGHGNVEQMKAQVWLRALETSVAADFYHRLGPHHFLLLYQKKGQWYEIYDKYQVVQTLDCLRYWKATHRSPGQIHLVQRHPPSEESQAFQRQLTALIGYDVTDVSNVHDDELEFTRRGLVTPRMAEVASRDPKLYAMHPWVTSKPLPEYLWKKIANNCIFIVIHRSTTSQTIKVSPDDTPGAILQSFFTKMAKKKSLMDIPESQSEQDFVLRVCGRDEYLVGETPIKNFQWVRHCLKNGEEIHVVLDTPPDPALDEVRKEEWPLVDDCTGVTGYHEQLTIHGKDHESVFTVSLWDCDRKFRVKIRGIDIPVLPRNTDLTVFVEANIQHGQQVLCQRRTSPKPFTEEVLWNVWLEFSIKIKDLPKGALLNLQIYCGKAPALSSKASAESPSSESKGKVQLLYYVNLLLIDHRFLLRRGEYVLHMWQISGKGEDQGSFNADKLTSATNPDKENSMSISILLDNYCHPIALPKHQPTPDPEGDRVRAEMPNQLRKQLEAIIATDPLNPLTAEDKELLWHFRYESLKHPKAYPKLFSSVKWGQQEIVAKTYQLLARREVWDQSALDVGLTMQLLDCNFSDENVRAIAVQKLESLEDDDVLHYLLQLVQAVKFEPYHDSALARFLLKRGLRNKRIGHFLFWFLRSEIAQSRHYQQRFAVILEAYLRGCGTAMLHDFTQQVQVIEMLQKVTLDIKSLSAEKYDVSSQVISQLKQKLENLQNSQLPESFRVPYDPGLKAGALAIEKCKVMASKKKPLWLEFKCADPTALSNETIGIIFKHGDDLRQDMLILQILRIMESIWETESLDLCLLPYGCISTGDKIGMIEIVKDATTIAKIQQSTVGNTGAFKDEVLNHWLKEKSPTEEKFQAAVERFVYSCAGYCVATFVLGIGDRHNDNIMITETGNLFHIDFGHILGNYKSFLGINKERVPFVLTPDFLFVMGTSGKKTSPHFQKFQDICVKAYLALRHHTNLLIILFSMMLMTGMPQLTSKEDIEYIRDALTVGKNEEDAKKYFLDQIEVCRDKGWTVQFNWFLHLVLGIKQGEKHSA
assayRemarks: Inhibition of human recombinant PI3Kgamma

# molSmiles, IC50
data = [
    ("CN1CCN(c2nc(C3=C(c4c[nH]c5ccccc45)C(=O)NC3=O)c3ccccc3n2)CC1", "> 10 µM"),
]

* * *

testSystem: RAC-alpha serine/threonine-protein kinase (Homo sapiens, UniProt P31749)
Sequence (P31749 whole entry): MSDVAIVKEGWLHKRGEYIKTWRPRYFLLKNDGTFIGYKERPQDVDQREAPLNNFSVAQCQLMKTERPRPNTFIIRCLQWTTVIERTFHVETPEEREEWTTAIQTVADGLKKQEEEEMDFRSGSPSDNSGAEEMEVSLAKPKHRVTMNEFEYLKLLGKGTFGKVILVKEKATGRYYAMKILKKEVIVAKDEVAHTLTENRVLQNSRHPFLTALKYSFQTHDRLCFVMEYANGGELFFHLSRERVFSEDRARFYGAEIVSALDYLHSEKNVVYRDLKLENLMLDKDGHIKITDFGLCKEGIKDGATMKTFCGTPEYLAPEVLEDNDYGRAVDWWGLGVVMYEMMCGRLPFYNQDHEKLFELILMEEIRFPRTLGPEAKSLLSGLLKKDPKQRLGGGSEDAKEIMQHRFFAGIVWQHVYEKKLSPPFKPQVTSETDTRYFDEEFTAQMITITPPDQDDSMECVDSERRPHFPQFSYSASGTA
assayRemarks: Inhibition of human recombinant Akt1
attributeMeasured: IC50

# molSmiles, endpointValue
data = [
    ("CN1CCN(c2nc(C3=C(c4c[nH]c5ccccc45)C(=O)NC3=O)c3ccccc3n2)CC1", "> 10 µM"),
]
